Tested on: Human immunodeficiency virus 1
Test: Antiviral activity against multidrug-resistant HIV1 with reverse transcriptase clone 7324-1 infected human MT2 cells assessed as inhibition of p24 antigen production after 4 days by ELISA
Format: functional, organism-based
Details: Human immunodeficiency virus 1, MT2, 96 h
pEC50: −log10 of the molar value.
The following molecules are shown together with reported pEC50 values.
quantity kind: pEC50

[[record]]
compound = "Cc1ccnc2c1NC(=O)c1cccnc1N2C1CC1"
quantity_kind = "pEC50"
censoring_operator = "<"
meas_value = 4.83

[[record]]
compound = "Cc1c(CC#N)c(=O)oc2c3c(ccc12)OC(C)(C)[C@H](OC(=O)[C@@]12CC[C@](C)(C(=O)O1)C2(C)C)[C@@H]3OC(=O)[C@@]12CC[C@](C)(C(=O)O1)C2(C)C"
quantity_kind = "pEC50"
censoring_operator = "="
meas_value = 5.41


---

Tested on: Human immunodeficiency virus 1
Assay: Antiviral activity against HIV1 93BR020 isolate of subtype F with X4R5 tropism in human PBMC cells assessed as inhibition of p24 antigen production after 4 days by ELISA
Format: functional, organism-based
Settings: Human immunodeficiency virus 1, PBMC, 96 h
pEC50: −log10 of the molar value.
quantity kind: pEC50

[[record]]
compound = "Cc1c(CC#N)c(=O)oc2c3c(ccc12)OC(C)(C)[C@H](OC(=O)[C@@]12CC[C@](C)(C(=O)O1)C2(C)C)[C@@H]3OC(=O)[C@@]12CC[C@](C)(C(=O)O1)C2(C)C"
meas_value = 5.66

